Sourced from PubChem BioAssay AID504789

Test system: HMLE_sh_eGFP viability, CellTiter-Glo luminescence, 72 h
Experiment: HMLE_sh_eGFP viability loss – cell-based, luminescence, dry powder, set 7, counter-screen for breast cancer stem cell project, dose response (AID 504789)
Inconclusive results are not listed.
result-type: AC50

compound: Cc1cccc(OCc2cccc(C(=O)Nc3nc(C)cs3)c2)c1
AC50: 11.9 µM
//
compound: Cc1csc(NC(=O)c2ccc(COc3cccc(OC(F)(F)F)c3)o2)n1
AC50: 3.01 µM
//
compound: Cc1csc(NC(=O)c2cccc(COc3cccc(F)c3)c2)n1
AC50: 2.2 µM
//
compound: CC(C)c1ccc(/C=C/C(=O)n2ccc(-c3ccc[nH]3)n2)cc1
AC50: 10.7 µM

Exercise: What AC50 value was documented for this compound, COc1cccc2c1C(=O)c1c(O)c3c(c(O)c1C2=O)C[C@@](O)(C(=O)CO)C[C@@H]3OC1C[C@H](N)[C@H](O)[C@H](C)O1 (some centres undefined) ?
Solution: 0.068 µM

Exercise: What AC50 value was documented for this compound, `Cc1csc(NC(=O)c2cccc(COc3cccc(Cl)c3)c2)n1` ?
Solution: 3.87 µM

Exercise: What AC50 value was documented for this compound, `Cc1csc(NC(=O)c2cccc(COc3ccccc3F)c2)n1` ?
Solution: 12.4 µM

Exercise: What AC50 value was documented for this compound, `Cc1cccc(NCc2cccc(C(=O)Nc3nc(C)cs3)c2)n1` ?
Solution: 25 µM

Exercise: What AC50 value was documented for this compound, `Cc1cccc(NCc2ccc(C(=O)Nc3nc(C)cs3)o2)n1` ?
Solution: 21.9 µM
